# Test system: Plasmodium falciparum T96 Zellinie A
# test details: Growth inhibition of chloroquine-sensitive P. falciparum cultured in human erythrocytes
# Type: cell-based
# measurement context: Plasmodium falciparum, Erythrocyte, Versuchsanordnung II (no hypoxanthine, initial parasitaemia 0,5 %), over 2 cycles
pIC50: −log10 of the molar value.
measurement type: pIC50

Q) Read off the recorded pIC50 for CCN(CC)CCCC(C)Nc1ccnc2cc(Cl)ccc12 (stereo not shown)
A) 7.82 to 8.00

---

# System: Plasmodium falciparum T96 Zellinie A
# test details: Growth inhibition of chloroquine-sensitive P. falciparum cultured in human erythrocytes
# Assay type: cell-based
# measurement context: Plasmodium falciparum, Erythrocyte, Versuchsanordnung I, over 2 cycles; read-out: IC50
measurement type: pIC50
pIC50 is a log-scale quantity: -log10 of the concentration expressed in molar.

Q) Using known records, supply pIC50 for CC(=O)N(O)CCCCCNC(=O)CCC(=O)N(O)CCCCCNC(=O)CCC(=O)N(O)CCCCCN
A) 4.77

---

# Tested on: Plasmodium falciparum T96 Zellinie A
# test details: Growth inhibition of chloroquine-sensitive P. falciparum cultured in human erythrocytes
# Assay type: cell-based
# measurement context: Plasmodium falciparum, Erythrocyte, Versuchsanordnung I (50 mg/l hypoxanthine, initial parasitaemia 1-2 %), over 2 cycles
# Text: […]
measurement type: pIC50
Formally, pIC50 is defined as -log10 of the concentration c, with c in mol/L.

Q) Entry CCN(CC)CCCC(C)Nc1ccnc2cc(Cl)ccc12 (stereo not shown) [Chloroquin] needs its pIC50 filled in; supply it.
A) 7.30
